Recorded GI50 by entry
- System: PANC-1
- measurement_notes: SRB colorimetric assay of cell growth and viability, PANC-1
- Assay type: cell-based, human
- measurement_parameters: 48 hours exposure
Where a SMILES comes first, the peptide text is derived from it. Bridges are numbered along the chain shown (N, C = ends). [ ]: non-standard residue; d: D form. The star is where a group is joined. d(aIle) = CC[C@H](C)[C@@H](N)C(=O)O; d(aThr) = C[C@@H](O)[C@@H](N)C(=O)O; Hexanoyl(5-Me) = CC(C)CCCC(=O)*; Orn = NCCC[C@H](N)C(=O)O; Dhb = C/C=C(\N)C(=O)O
Just the number please, in nM, no unit attached.

C/C=C1\NC(=O)[C@H](Cc2ccccc2)NC(=O)[C@@H](C(C)C)NC(=O)[C@@H]([C@@H](C)CC)NC(=O)[C@H](NC(=O)[C@H](NC(=O)[C@H](CCCCN)NC(=O)[C@H]2CCCN2C(=O)[C@H](NC(=O)[C@@H](NC(=O)[C@@H](NC(=O)[C@H](NC(=O)CCCC(C)C)C(C)C)[C@@H](C)O)C(C)C)C(C)C)[C@@H](C)CC)[C@@H](C)OC(=O)[C@H](C(C)C)NC1=O [Compound 5, [Lys^8]-KF]
1140
C/C=C1\NC(=O)[C@H](Cc2ccccc2)NC(=O)[C@@H](C(C)C)NC(=O)[C@@H]([C@@H](C)CC)NC(=O)[C@H](NC(=O)[C@H](NC(=O)[C@H](CCCN)NC(=O)[C@H]2CCCN2C(=O)[C@H](NC(=O)[C@H](CCCN)NC(=O)[C@@H](NC(=O)[C@H](NC(=O)CCCC(C)C)C(C)C)[C@@H](C)O)C(C)C)[C@@H](C)CC)[C@@H](C)OC(=O)[C@H](C(C)C)NC1=O [Compound 49, [Orn^11]-KF] ({Hexanoyl(5-Me)}-[dV]T[Orn][dV][dP][Orn][d(aIle)][d(aThr)][d(aIle)][dV]F[Dhb]V; ester 8-C)
1310
C/C=C1\NC(=O)[C@H](Cc2ccccc2)NC(=O)[C@@H](C(C)C)NC(=O)[C@@H]([C@@H](C)CC)NC(=O)[C@H](NC(=O)[C@H](NC(=O)[C@H](CCCN)NC(=O)[C@H]2CCCN2C(=O)[C@H](NC(=O)[C@@H](NC(=O)[C@@H](NC(=O)[C@@H](NC(=O)CCCC(C)C)C(C)C)[C@@H](C)O)C(C)C)C(C)C)[C@@H](C)CC)[C@@H](C)OC(=O)[C@H](C(C)C)NC1=O [Compound 38, [Val^13]-KF]
25.4
C/C=C1\NC(=O)[C@H](Cc2ccccc2)NC(=O)[C@@H](C(C)C)NC(=O)[C@@H]([C@@H](C)CC)NC(=O)[C@H](NC(=O)[C@H](NC(=O)[C@H](CCC(=O)O)NC(=O)[C@H]2CCCN2C(=O)[C@H](NC(=O)[C@@H](NC(=O)[C@@H](NC(=O)[C@H](NC(=O)CCCC(C)C)C(C)C)[C@@H](C)O)C(C)C)C(C)C)[C@@H](C)CC)[C@@H](C)OC(=O)[C@H](C(C)C)NC1=O [Compound 4, [Glu^8]-KF] ({Hexanoyl(5-Me)}-[dV]TV[dV][dP]E[d(aIle)][d(aThr)][d(aIle)][dV]F[Dhb]V; ester 8-C)
1820

Next, consider the following compound.
q: What value of GI50 has been recorded for this entry: C/C=C1\NC(=O)[C@H](Cc2ccccc2)NC(=O)[C@@H](C(C)C)NC(=O)[C@@H]([C@@H](C)CC)NC(=O)[C@H](NC(=O)[C@H](NC(=O)[C@H](CCCN)NC(=O)[C@H]2CCCN2C(=O)[C@H](NC(=O)[C@@H](NC(=O)[C@@H](NC(=O)[C@H](NC(=O)CCCC(C)C)[C@H](C)O)[C@@H](C)O)C(C)C)C(C)C)[C@@H](C)CC)[C@@H](C)OC(=O)[C@H](C(C)C)NC1=O [Compound 41, [D-Thr^13]-KF]
a: 2690

###

- Tested on: PANC-1
- measurement_notes: SRB colorimetric assay of cell growth and viability, PANC-1
- Format: cell-based, human
- measurement_parameters: 48 hours exposure
outcome_measure: TGI PANC-1
Answer format: value, then unit.

C/C=C1\NC(=O)[C@H](Cc2ccccc2)NC(=O)[C@@H](C(C)C)NC(=O)[C@@H]([C@@H](C)CC)NC(=O)[C@H](NC(=O)[C@H](NC(=O)[C@H](CCCCN)NC(=O)[C@H]2CCCN2C(=O)[C@H](NC(=O)[C@@H](NC(=O)[C@@H](NC(=O)[C@H](NC(=O)CC[C@@H](C)CC)C(C)C)[C@@H](C)O)C(C)C)C(C)C)[C@@H](C)CC)[C@@H](C)OC(=O)[C@H](C(C)C)NC1=O [Compound 30, [Lys^8, (4S)-MeHex^14]-KF]
5.28E−06 Molar

Next, consider the following compound.
q: Value wanted: TGI PANC-1 (PANC-1) of entry C/C=C1\NC(=O)[C@H](Cc2ccccc2)NC(=O)[C@@H](C(C)C)NC(=O)[C@@H]([C@@H](C)CC)NC(=O)[C@H](NC(=O)[C@H](NC(=O)[C@H](CCCN)NC(=O)[C@H]2CCCN2C(=O)[C@H](NC(=O)[C@@H](NC(=O)[C@@H](NC(=O)[C@H](NC(=O)c2ccc(C(F)(F)F)cc2)C(C)C)[C@@H](C)O)C(C)C)C(C)C)[C@@H](C)CC)[C@@H](C)OC(=O)[C@H](C(C)C)NC1=O [Compound 21, [p-CF3Bza^14]-KF]
a: 3.11E−06 Molar

###

- Test system: LoVo
- measurement_notes: SRB colorimetric assay of cell growth and viability, LoVo
- Assay type: cell-based, human
- measurement_parameters: 48 hours exposure; read-out: LC50 LOVO
- Procedure: The finality of this assay is to interrupt the growth of a “in vitro” tumor cell culture by means a continued exhibition of the cells to the sample to be testing. […] Cells are seeded in 96 well microtiter plates, at 5×10^3 cells per well in aliquots of 195 μL medium, and they are allowed to attach to the plate surface by growing in drug free medium for 18 hours. […] Optical densities are read on a automated spectrophotometric plate reader at a single wavelength of 490 nm. […]
// NB: equality with 4 µM counts as f; only CC50 strictly below is t

q: Strictly below 4 µM: is that where CC50 of C/C=C1\NC(=O)[C@H](Cc2ccccc2)NC(=O)[C@@H](C(C)C)NC(=O)[C@@H]([C@@H](C)CC)NC(=O)[C@H](NC(=O)[C@H](NC(=O)[C@H](CCCN)NC(=O)[C@H]2CCCN2C(=O)[C@H](NC(=O)[C@@H](NC(=O)[C@@H](NC(=O)[C@@H](CC2CCCCC2)NC(=O)CCCC(C)C)[C@@H](C)O)C(C)C)C(C)C)[C@@H](C)CC)[C@@H](C)OC(=O)[C@H](C(C)C)NC1=O [Compound 8, [D-Cha^13]-KF] sits?
a: t

q: Strictly below 4 µM: is that where CC50 of C/C=C1\NC(=O)[C@H](Cc2ccccc2)NC(=O)[C@@H](C(C)C)NC(=O)[C@@H]([C@@H](C)CC)NC(=O)[C@H](NC(=O)[C@H](NC(=O)[C@H](CCCN)NC(=O)[C@H]2CCCN2C(=O)[C@H](NC(=O)[C@@H](NC(=O)[C@@H](NC(=O)[C@@H](CC(C)C)NC(=O)CCCC(C)C)[C@@H](C)O)C(C)C)C(C)C)[C@@H](C)CC)[C@@H](C)OC(=O)[C@H](C(C)C)NC1=O [Compound 35, [D-Leu^13]-KF] sits?
a: t

###

- Test system: LoVo-Dox
- measurement_notes: SRB colorimetric assay of cell growth and viability, LoVo-Dox
- Assay type: cell-based, human
- measurement_parameters: 48 hours exposure; read-out: LC50 LOVO-DOX
- Text: The finality of this assay is to interrupt the growth of a “in vitro” tumor cell culture by means a continued exhibition of the cells to the sample to be testing. A colorimetric type of assay, using sulforhodamine B (SRB) reaction has been adapted for a quantitative measurement of cell growth and viability [following the technique described by Philip Skehan, et al. (1990), New colorimetric cytotoxicity assay for anticancer drug screening, J. Natl. Cancer Inst., 82:1107-1112]. […]
Where a SMILES comes first, the peptide text is derived from it. Bridges are numbered along the chain shown (N, C = ends). [ ]: non-standard residue; d: D form. The star is where a group is joined. d(aIle) = CC[C@H](C)[C@@H](N)C(=O)O; d(aThr) = C[C@@H](O)[C@@H](N)C(=O)O; hCha = N[C@@H](CCC1CCCCC1)C(=O)O; Hexanoyl(5-Me) = CC(C)CCCC(=O)*; dCha = N[C@H](CC1CCCCC1)C(=O)O; Orn = NCCC[C@H](N)C(=O)O; Dhb = C/C=C(\N)C(=O)O
outcome_measure: CC50 (nM)
Just the number please, in nM, no unit attached.

C/C=C1\NC(=O)[C@H](Cc2ccccc2)NC(=O)[C@@H](CC2CCCCC2)NC(=O)[C@@H](CC2CCCCC2)NC(=O)[C@H](NC(=O)[C@@H](CC2CCCCC2)NC(=O)[C@H](CCCN)NC(=O)[C@H]2CCCN2C(=O)[C@H](NC(=O)[C@@H](NC(=O)[C@@H](NC(=O)[C@H](NC(=O)CCCC(C)C)C(C)C)[C@@H](C)O)C(C)C)C(C)C)[C@@H](C)OC(=O)[C@H](C(C)C)NC1=O [Compound 11, [D-Cha^4, D-Cha^5, D-Cha^7]-KF] ({Hexanoyl(5-Me)}-[dV]TV[dV][dP][Orn][dCha][d(aThr)][dCha][dCha]F[Dhb]V; ester 8-C)
326
C/C=C1\NC(=O)[C@H](Cc2ccccc2)NC(=O)[C@@H](C(C)C)NC(=O)[C@@H]([C@@H](C)CC)NC(=O)[C@H](NC(=O)[C@H](NC(=O)[C@H](CCCN)NC(=O)[C@H]2CCCN2C(=O)[C@H](NC(=O)[C@H](CCCN)NC(=O)[C@@H](NC(=O)[C@H](NC(=O)CCCC(C)C)C(C)C)[C@@H](C)O)C(C)C)[C@@H](C)CC)[C@@H](C)OC(=O)[C@H](C(C)C)NC1=O [Compound 49, [Orn^11]-KF] ({Hexanoyl(5-Me)}-[dV]T[Orn][dV][dP][Orn][d(aIle)][d(aThr)][d(aIle)][dV]F[Dhb]V; ester 8-C)
6700
C/C=C1\NC(=O)[C@H](Cc2ccccc2)NC(=O)[C@@H](C(C)C)NC(=O)[C@@H]([C@@H](C)CC)NC(=O)[C@H](NC(=O)[C@H](NC(=O)[C@H](CCCN)NC(=O)[C@H]2CCCN2C(=O)[C@H](NC(=O)[C@H](CCC2CCCCC2)NC(=O)[C@@H](NC(=O)[C@H](NC(=O)CCCC(C)C)C(C)C)[C@@H](C)O)C(C)C)[C@@H](C)CC)[C@@H](C)OC(=O)[C@H](C(C)C)NC1=O [Compound 9, [hCh^11]-KF] ({Hexanoyl(5-Me)}-[dV]T[hCha][dV][dP][Orn][d(aIle)][d(aThr)][d(aIle)][dV]F[Dhb]V; ester 8-C)
305

Next, consider the following compound.
q: Value wanted: CC50 (LoVo-Dox) of entry C/C=C1\NC(=O)[C@H](Cc2ccccc2)NC(=O)[C@@H](C(C)C)NC(=O)[C@@H]([C@@H](C)CC)NC(=O)[C@H](NC(=O)[C@H](NC(=O)[C@H](CCCN)NC(=O)[C@H]2CCCN2C(=O)[C@H](NC(=O)[C@@H](NC(=O)[C@@H](NC(=O)[C@H](NC(=O)C(F)(F)C(F)(F)C(F)(F)C(F)(F)C(F)(F)C(F)(F)F)C(C)C)[C@@H](C)O)C(C)C)C(C)C)[C@@H](C)CC)[C@@H](C)OC(=O)[C@H](C(C)C)NC1=O [Compound 26, [Pfh^14]-KF]
a: 484
